Biological target: KRAS_G12D and cRAF (Homo sapiens, UniProt P01116, G12D)
Sequence (P01116 1-188 isoform P01116-2 G12D): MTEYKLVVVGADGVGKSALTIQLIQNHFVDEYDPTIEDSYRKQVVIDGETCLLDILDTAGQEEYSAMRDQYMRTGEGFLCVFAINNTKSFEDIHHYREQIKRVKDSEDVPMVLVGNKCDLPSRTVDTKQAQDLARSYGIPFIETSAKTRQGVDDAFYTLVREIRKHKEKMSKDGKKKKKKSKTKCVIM
Assay: Inhibition of KRAS_G12D/cRAF binding (Cisbio binding kit, 665/615 ratio), Effect Embodiment B
Settings: read-out: GTP-KRAS-G12D:CRAF IC50
Description: Similarly, the first dilution point of the compound to be tested was its storage solution, and the solution was 3-fold diluted, with 11+0 points of dilution. Echo was used to transfer 0.2 μL gradient diluted solution of the compounds into a 384-well plate, with 2 duplicated wells for each compound, and the final concentration of DMSO was 1%. The solution was centrifuged for 1 min at 1000 rpm/min. IC50 of the compounds was fitted by Graphpad Prism 8 nonlinear regression equation: […]
Where a name gives a salt, the structure may show the parent alone.
readoutKind: IC50 (nM)
Unit nM implied. Number only.

Example entries and their recorded answers appear below.
compound	outputUnit	IC50
CN(C)C(=O)OCC1CCC2(COc3nc(N4CC5CCC(C4)N5)c4cc(Cl)c(-c5cc(O)cc6ccccc56)c(F)c4n3)CCCN12 (single isomer, unassigned) [Compound 232a]	nM	7.79
CN1CCC[C@@]1(C)COc1nc(N2CC3CCC(C2)N3)c2cnc(-c3cc(O)cc4ccccc34)c(F)c2n1	nM	67.5
CO[C@@H]1C[C@H]2CC[C@@H](C1)N2C[C@@H](C)COc1nc(N2CC3CCC(C2)N3)c2cc(Cl)c(-c3cc(O)cc4ccccc34)c(F)c2n1 (single isomer, unassigned)	nM	18.6
Cc1cccc2cc(O)cc(-c3c(Cl)cc4c(N5CC6CCC(C5)N6)nc(N5CC(N(C)C)C5)nc4c3F)c12 (single isomer, unassigned) [Compound 47a]	nM	824
Oc1cc(-c2c(Cl)cc3c(N4CC5CCC(C4)N5)nc(OCCC4(N5CCCC5)CC4)nc3c2F)c2ccccc2c1 (single isomer, unassigned) [Compound 117, dihydrochloride]	nM	134

Item CN(C)C1CN(c2nc(N3CCNC4CC43)c3cc(Cl)c(-c4cc(O)cc5ccccc45)c(F)c3n2)C1 (single isomer, unassigned) has what recorded IC50?
4700

Record request: IC50 value, item CN1C[C@@H]2C[C@@H]2[C@H]1COc1nc(N2CC3CCC(C2)N3)c2cc(Cl)c(-c3cc(O)cc4ccccc34)c(F)c2n1 (single isomer, unassigned)
88.9

Please report the recorded IC50 for CCN(CC)CCCOc1nc(N2CC3CCC(C2)N3)c2cc(Cl)c(-c3cc(O)cc4ccccc34)c(F)c2n1 (single isomer, unassigned) [Compound 53a] .
147
